composite z-score overview
Target: Left-right determination factor 2 (Homo sapiens) (UniProt O00292)
Sequence (O00292 whole entry, looked up): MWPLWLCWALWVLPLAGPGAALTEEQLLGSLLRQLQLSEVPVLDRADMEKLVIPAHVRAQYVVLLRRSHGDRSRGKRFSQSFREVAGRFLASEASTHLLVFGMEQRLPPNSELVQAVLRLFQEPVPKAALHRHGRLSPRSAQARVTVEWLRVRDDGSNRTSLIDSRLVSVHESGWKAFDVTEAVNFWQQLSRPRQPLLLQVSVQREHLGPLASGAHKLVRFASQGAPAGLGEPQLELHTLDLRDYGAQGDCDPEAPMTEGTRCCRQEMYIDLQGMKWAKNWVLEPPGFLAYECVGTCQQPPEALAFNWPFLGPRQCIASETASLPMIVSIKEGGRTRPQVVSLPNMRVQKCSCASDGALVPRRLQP
Assay: LEFTY2 binders on small-molecule microarrays, primary screen, biochemical, small-molecule microarray, 635 nm fluorescence scan (AID 1110)
Details: LEFTY2 binding, higher = more signal
// no unit, no text: just the number

Sample C=C[C@@H](COC(C)=O)N(C(=O)OC(C)(C)C)S(=O)(=O)c1ccc(Br)cc1 ; composite z-score observed: 1.27

New cases:
Sample COCCCNC(=O)[C@@]1(Cc2ccccc2N=[N+]=[N-])COC(c2ccc(OCCCO)cc2)=N1 ; composite z-score observed: 0.185

Sample CC(C)C[C@@H]1NC(=O)[C@@H]2C[C@H](C(=O)NCCCCN(C)C)[C@H](c3cccc(OCCO)c3)N2C1=O ; composite z-score observed: -0.113

Sample C[N+](C)(C)CCCCCCNC(=O)[C@H]1C[C@H]2C(=O)NCC(=O)N2[C@H]1c1ccc(O)cc1 ; composite z-score observed: 1.03

Sample [N-]=[N+]=NCc1ccccc1C[C@@]1(C(=O)N2CCCCC2)N=C(c2ccc(OCCCO)cc2)O[C@@H]1c1ccccc1 ; composite z-score observed: -1.01

----------
Target: NADPH oxidase 2 (Homo sapiens) (UniProt P04839)
Sequence (P04839 whole entry, looked up): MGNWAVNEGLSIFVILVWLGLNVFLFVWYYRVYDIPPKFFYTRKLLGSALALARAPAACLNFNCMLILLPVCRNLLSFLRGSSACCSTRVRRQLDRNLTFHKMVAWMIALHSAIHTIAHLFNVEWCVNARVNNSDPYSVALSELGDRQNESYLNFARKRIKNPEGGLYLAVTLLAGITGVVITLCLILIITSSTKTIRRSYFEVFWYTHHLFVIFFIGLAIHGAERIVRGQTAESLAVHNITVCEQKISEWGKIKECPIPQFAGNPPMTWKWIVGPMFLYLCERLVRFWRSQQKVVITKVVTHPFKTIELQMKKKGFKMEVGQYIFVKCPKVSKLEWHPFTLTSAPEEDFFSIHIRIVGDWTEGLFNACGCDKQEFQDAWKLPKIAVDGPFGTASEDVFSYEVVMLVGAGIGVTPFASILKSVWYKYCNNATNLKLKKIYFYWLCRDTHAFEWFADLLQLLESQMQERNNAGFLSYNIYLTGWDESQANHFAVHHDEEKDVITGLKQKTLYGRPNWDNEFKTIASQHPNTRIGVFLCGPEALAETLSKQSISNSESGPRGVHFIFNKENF
Assay: NOX2-dependent H2O2 signal modulators, primary screen, NOX inhibitor project, cell-based, HEK293-NOX2, PMA-stimulated, Amplex Red fluorescence (AID 1159); note: test concentration not given here
Conditions: 45 min, higher = more signal, called active from +8 up or from −8 down
property-label: z-score
// no unit, no text: just the number

A selection of reference data follows.
Sample O=C1O[C@@H](c2ccccc2)[C@@H](c2ccccc2)N2[C@@H](c3ccc(O)cc3)[C@]3(C(=O)Nc4ccc(C#CC5=CCCCC5)cc43)[C@@H](C(=O)NC[C@H](O)c3ccccc3)[C@H]12 ; z-score observed: 1.22

Sample C=C[C@@H](COC(C)=O)N(C(=O)OC(C)(C)C)S(=O)(=O)c1ccc(Br)cc1 ; z-score observed: -1.47

Sample COC(=O)[C@@]1(Cc2ccccc2)[C@H]2c3cc(C(=O)N(C)C)n(CCc4ccc(O)c(OC)c4)c3C[C@H]2CN1C(=O)c1ccccc1 ; z-score observed: 0.0564

Sample CCCCCCc1nc(-c2cc(C)c(OC)c(C)c2)c(C)c2c1[Si](C(C)C)(C(C)C)OC2 ; z-score observed: -2.5

New cases:
Sample COCCOC(=O)N1C(=O)[C@@]2(c3cc(C#CCC(C(=O)OC)C(=O)OC)ccc31)[C@H](C(=O)N1CCc3cc(OC)c(OC)cc3C1)[C@H]1C(=O)O[C@H](c3ccccc3)[C@H](c3ccccc3)N1[C@@H]2c1ccc(OCCO)cc1 ; z-score observed: 1.98

Sample CC1=C[C@@]2(CO)C(=O)[C@]3(CO3)[C@@H]1[C@H]1[C@]2(C)C=C(CO)C(=O)[C@]12CO2 ; z-score observed: -0.35

Sample CCCC[C@@H]1C[C@H]1[C@@H](NC(=O)Cc1ccccc1)c1ccc(-c2ccccc2)cc1 ; z-score observed: -1.35

Sample O=C1C2C=CC(C(O)c3ccccc3)N(Nc3ccccc3F)C2C(=O)N1c1ccccc1 (stereo not drawn) ; z-score observed: -2.07

----------
Experiment: S. cerevisiae growth modulation with rapamycin, primary screen, strain BY4716, OD600, 96 h (AID 1091); note: test concentration not given here
Details: higher = more signal, called active from +8 up or from −8 down
property-label: z-score
// no unit, no text: just the number

Sample C=C(COC)/C(=C/C[C@H](OC(=O)c1ccncc1)c1ccccc1OCCO)c1cnc2ccccc2c1 ; z-score observed: -0.252

New cases:
Sample CN(C)c1ccc(C(O)C2C=CC3C(=O)N(c4ccccc4)C(=O)C3N2Nc2ccc([N+](=O)[O-])cc2)cc1 (stereo not given) ; z-score observed: 2.39

Sample C=CCOC(=O)[C@H]1[C@@H]2C(=O)O[C@@H](c3ccccc3)[C@@H](c3ccccc3)N2[C@@H](c2ccc(OCCOC(=O)[C@H]3C[C@H]4C(=O)N[C@@H](CC(C)C)C(=O)N4[C@H]3c3cccc(OCCO)c3)cc2)[C@]12C(=O)Nc1ccc(I)cc12 ; z-score observed: 2.8

Sample COC(=O)c1cn(C[C@@H](Cc2ccccc2)NC(=O)N[C@H](CO)CCc2oc(C(C)=O)c(C(=O)OC)c2C(=O)OC)nn1 ; z-score observed: -0.338

Sample COC(=O)[C@H](Cc1ccccc1)N1CC(/C=C/C2CC2)=C[C@H]1[C@H](O)Cc1ccccc1 ; z-score observed: -0.677

----------
Experiment: PSAC antagonists in infected red cells, primary screen, cell-based, P. falciparum Indochina, OD700, 1 h (AID 1154)
Conditions: P. falciparum Indochina infected RBC osmotic lysis, higher = more signal, called active from +8 up or from −8 down
z-score overview
// no unit, no text: just the number

A selection of reference data follows.
Sample CCOC(=O)C[C@H]1[C@H](OC(=O)c2ccc(C(=O)c3ccccc3)cc2)[C@@H](NC(=O)Cc2ccc(OC)cc2)c2cc(OCCCO)ccc2N1C(=O)c1ccccc1 ; z-score observed: 2.41

Sample C=CCN1C(=O)[C@@]2(O[C@@H](CCn3cc([C@H](O)c4ccccc4)nn3)[C@H]([Si](C)(C)c3ccc(OC)cc3)[C@H]2C)c2cc(N3CCC3=O)ccc21 ; z-score observed: 14.4

New cases:
Sample CC(C)[Si](C#CCCCC#N)(O[C@H](c1ccccc1)c1cn([C@H](CO)Cc2ccccc2)nn1)C(C)C ; z-score observed: 1.31

Sample COCCOC(=O)N1C(=O)[C@@]2(c3cc(C#Cc4ccc(OC)cc4)ccc31)[C@H](C(=O)Nc1nc3ccccc3s1)[C@H]1C(=O)O[C@H](c3ccccc3)[C@H](c3ccccc3)N1[C@@H]2c1ccc(OCCO)cc1 ; z-score observed: 6.99

Sample CC(=O)c1ccc(C(O)C2C=CC3C(=O)N(c4ccccc4)C(=O)C3N2Nc2ccc(C#N)cc2)cc1 (centres undefined) ; z-score observed: 18

Sample C[C@]1(C(=O)NC2CC2)c2ccccc2C(=O)N(Cc2ccccc2)[C@H]1c1ccc(CO)cc1 ; z-score observed: 2.84

Sample C=CCN1Cc2ccccc2[C@H]2OC(c3ccc(OCCCO)cc3)=N[C@@]2(CC=C)C1=O ; z-score observed: 29.9

Sample CCCC[C@@H]1C[C@H]1[C@@H](NC(=O)Cc1ccccc1)c1ccc(-c2ccccc2)cc1 ; z-score observed: 1.1

Sample C=CCC(OC(C)=O)[C@@H]1[C@@H](N(Cc2ccc(-c3cccc(C(F)(F)F)c3)o2)C(=O)c2ccc(-c3ccccc3)cc2)c2cc(OCCCO)ccc2N1C(=O)c1ccc2ccccc2n1 (some centres undefined) ; z-score observed: 0.394

----------
Test system: Wnt5a (protein binding on small-molecule microarray)
Test: Wnt5a binders on small-molecule microarray, primary screen, biophysical, 635/667 nm fluorescence (AID 1142);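 note: fluorescence read at 667 nm with signal to noise per printed feature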
Conditions: 635 nm fluorescence, higher = more signal
composite z-score overview
// no unit, no text: just the number

A selection of reference data follows.
Sample Cc1cc(C)c(C(O)C2C=CC3C(=O)N(c4ccccc4)C(=O)C3N2Nc2ccc(C(C)C)cc2)c(C)c1 (centres undefined) ; composite z-score observed: 0.704

Sample NCCCCCCNC(=O)[C@@H]1C[C@@H]2C(=O)N[C@@H](CCCCN)C(=O)N2[C@@H]1c1cccc(OCCO)c1 ; composite z-score observed: 0.57

Sample O=C(NCc1ccccc1)[C@@H]1c2ccccc2C(=O)N(Cc2ccccc2C(F)(F)F)[C@H]1c1ccc(CO)cc1 ; composite z-score observed: -0.405

Sample COC(=O)[C@@]1(Cc2ccc(F)cc2)[C@H]2c3cc(C(=O)N4CCCC4)n(CCc4ccc(O)c(O)c4)c3C[C@H]2CN1C(=O)c1ccccc1 ; composite z-score observed: 1.2

Sample COc1cc2c(cc1OC)CN(C(=O)[C@@H]1[C@H]3C(=O)O[C@H](c4ccccc4)[C@H](c4ccccc4)N3[C@H](c3ccc(OCCO)cc3)[C@@]13C(=O)Nc1ccccc13)CC2 ; composite z-score observed: 0.758

Sample CC(=O)NCCCC[C@@H]1NC(=O)[C@H]2C[C@@H](C(=O)NCCCC[N+](C)(C)C)[C@@H](c3cccc(OCCO)c3)N2C1=O ; composite z-score observed: 0.975

Sample COc1ccccc1CN1C(=O)c2ccccc2[C@@]2(Cc3ccccc3N(CC(F)(F)F)C2=O)[C@@H]1c1ccc(CO)cc1 ; composite z-score observed: 0.0586

Sample CCCC[C@@H]1C[C@H]1[C@@H](NC(=O)c1ccccc1)c1ccc(C(F)(F)F)cc1 ; composite z-score observed: -0.547

New cases:
Sample CC(C)[Si](C#CCCCC#N)(O[C@H](c1ccccc1)c1cn([C@H](CO)Cc2ccccc2)nn1)C(C)C ; composite z-score observed: -0.187

----------
Assay: PSAC antagonists in infected red cells, primary screen, cell-based, P. falciparum Indochina, OD700, 18 h (AID 1157)
Conditions: P. falciparum Indochina infected erythrocytes, osmotic lysis OD700, 18 h, called active from +8 up or from −8 down
Activity calls are given as the source filed them.
Thanks in advance; please answer with one of these: y = active, n = inactive

q: Kindly provide the recorded test outcome for the following compound: C=CCNC(=O)[C@H]1[C@@H]2C(=O)O[C@@H](c3ccccc3)[C@@H](c3ccccc3)N2[C@@H](c2ccc(O)cc2)[C@]12C(=O)Nc1ccc(C#CC3(O)CCCCCC3)cc12
a: n

q: Kindly provide the recorded test outcome for the following compound: C=CCOC(=O)[C@H]1[C@@H]2C(=O)O[C@@H](c3ccccc3)[C@@H](c3ccccc3)N2[C@@H](c2ccc(OCCOC(=O)[C@H]3C[C@H]4C(=O)N[C@@H](CCCCNC(C)=O)C(=O)N4[C@H]3c3ccc(O)cc3)cc2)[C@]12C(=O)Nc1ccccc12
a: n

q: Kindly provide the recorded test outcome for the following compound: OCCCC1=CC(c2ccc(CN3CCCC3)cc2)N(Cc2sc3ccccc3c2Cl)CC1 (stereo not given)
a: n

q: Kindly provide the recorded test outcome for the following compound: [N-]=[N+]=NCc1ccccc1[C@@H]1OC(c2ccc(OCCCO)cc2)=N[C@]1(CCS(=O)(=O)c1ccccc1)C(=O)NCC(O)CO (stereo not given in full)
a: n

q: Kindly provide the recorded test outcome for the following compound: C=CCOC(=O)[C@H]1[C@@H]2C(=O)O[C@@H](c3ccccc3)[C@@H](c3ccccc3)N2[C@@H](c2ccc(OCCOC(=O)[C@@H]3C[C@@H]4C(=O)N[C@@H](CCCCN(C)C)C(=O)N4[C@@H]3c3ccc(O)cc3)cc2)[C@]12C(=O)Nc1ccccc12
a: n

q: Kindly provide the recorded test outcome for the following compound: CN1C(=O)C2C=CC(C(O)C#Cc3ccccc3)N(Nc3ccccc3)C2C1=O (stereo not given)
a: n

q: Kindly provide the recorded test outcome for the following compound: COc1cc(CO)cc(I)c1O[C@H]1C=C(C(=O)NCCO)C[C@@H](NCc2ccc(F)cc2)[C@@H]1O
a: n

q: Kindly provide the recorded test outcome for the following compound: Cc1ccccc1C(O)C1C=CC2C(=O)N(C)C(=O)C2N1N(c1ccccc1)c1ccccc1 (stereo not given)
a: n

q: Kindly provide the recorded test outcome for the following compound: [N-]=[N+]=Nc1ccccc1[C@H]1OC(c2ccc(OCCCO)cc2)=N[C@@]1(Cc1ccccc1)C(=O)N1CCCCC1
a: y

q: Kindly provide the recorded test outcome for the following compound: NC(=O)NCC#Cc1ccc2c(c1)[C@]1(C(=O)N2)[C@H](C(=O)O)[C@H]2C(=O)O[C@H](c3ccccc3)[C@H](c3ccccc3)N2[C@@H]1c1ccc(OCCO)cc1
a: n
